assay: cytotoxicity in mouse NIH/3T3 fibroblasts, confirmation, cytotoxicity control for T. cruzi proliferation inhibitor project, cell-based, cherry-pick, single point (AID 651742); conditions: NIH/3T3 viability, CellTiter-Glo ATP luminescence, 90 h; at 8.35 µM; active compounds read high;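 also: 0% = median of neutral control wells and 100% = median of positive control wells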
About 780 (14%) of roughly 5,600 compounds were called active. Another 3% or so got no clear call; they are omitted. The list is a sample of the results.
reported.metric: cytotoxicity (signal decrease) (%)
Write it as a number; the unit % goes unstated.

**Query** Give reported cytotoxicity (signal decrease) value for "COc1ccc(C#Cc2ccc([C@H]3[C@H](CO)N4CCCCN(C(=O)Cc5ccccc5)C[C@@H]34)cc2)cc1"
**Result** 58.2

**Query** Give reported cytotoxicity (signal decrease) value for "O=C(Cc1cccnc1)N1CCCCN2[C@@H](CO)[C@H](c3ccc(C#CC4CCCC4)cc3)[C@@H]2C1"
**Result** 23.3

**Query** Give reported cytotoxicity (signal decrease) value for "O=C(Cc1ccccn1)N1CCCCN2[C@@H](CO)[C@@H](c3ccc(C#Cc4ccccc4)cc3)[C@@H]2C1"
**Result** 33.5

**Query** Give reported cytotoxicity (signal decrease) value for "COc1ccc(-c2ccc([C@H]3[C@H](CO)N4CCCCN(C(=O)Cc5ccncc5)C[C@@H]34)cc2)cc1"
**Result** 17.6
